Molecular target: T1, IR485 construct of human insulin receptor (human, UniProt P06213 28-512)
T1 construct: The tag was not removed for ITC; Expressed in Lec8 mutant CHO cells; also called insulin mini-receptor IR485; first three domains of IR (L1-CR-L2)
T1 chain: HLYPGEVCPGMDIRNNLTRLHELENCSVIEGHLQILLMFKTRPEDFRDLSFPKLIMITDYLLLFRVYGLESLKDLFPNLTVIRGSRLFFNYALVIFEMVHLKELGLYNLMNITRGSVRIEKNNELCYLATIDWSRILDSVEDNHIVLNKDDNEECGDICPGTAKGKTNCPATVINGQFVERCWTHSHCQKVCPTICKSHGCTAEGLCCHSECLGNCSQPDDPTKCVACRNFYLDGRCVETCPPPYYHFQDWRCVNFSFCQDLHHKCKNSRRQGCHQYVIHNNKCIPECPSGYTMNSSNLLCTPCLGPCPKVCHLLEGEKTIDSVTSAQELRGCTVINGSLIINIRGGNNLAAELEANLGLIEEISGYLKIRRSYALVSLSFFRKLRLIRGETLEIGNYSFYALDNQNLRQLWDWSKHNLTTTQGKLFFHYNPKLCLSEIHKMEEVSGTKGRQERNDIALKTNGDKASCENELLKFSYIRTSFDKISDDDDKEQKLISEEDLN
Assay: ITC, about 25 °C, peptide about 60 µM titrated into IR485 about 10 µM
pKd: −log10 of the molar value. Ends that are not written are not given here. * marks the point of attachment. Biotin = O=C1N[C@H]2[C@H](CS[C@H]2CCCCC(=O)*)N1
Decision: pKd compared against 7; not below it gives yes (1), below it gives no (0).

Observe how each entry below is paired with its result.
Biotin-ESSFYKWFEDYLHNVVFVPRPS [N-terminally biotinylated IR αCT peptide 698-719, R702Y/T704W]	yes (1)
Biotin-ESSFRKWFEDYLHNVVFVPRPS [N-terminally biotinylated IR αCT peptide 698-719, T704W]	no (0)
Biotin-ESSFYKTFEDYLHNVVFVPRPS [N-terminally biotinylated IR αCT peptide 698-719, R702Y]	no (0)
Biotin-ESSFRKYFEDYLHNVVFVPRPS [N-terminally biotinylated IR αCT peptide 698-719, T704Y]	no (0)

Query: Does pKd meet or surpass 7 for Biotin-ESSFRKTFEDYLHNVVFVPRPS (Genscript, >75% purity; also called wt; native peptide) [N-terminally biotinylated IR αCT peptide 698-719, wild type] ?
Response: no (0)

Query: Does pKd meet or surpass 7 for Biotin-ESSFWKTFEDYLHNVVFVPRPS [N-terminally biotinylated IR αCT peptide 698-719, R702W] ?
Response: no (0)
